- experimental.system: Muscarinic acetylcholine receptor M3 (Homo sapiens)
- measurement.description: Binding affinity to human muscarinic M3 receptor expressed in human HEK293T cells assessed as inhibition of carbachol-induced G-protein signaling by measuring inositol accumulation preincubated for 30 mins followed by carbachol stimulation and measured after 90 mins by HTRF assay
- Format: cell-based
readout: IC50 (µM)

test.smiles	measured.value
CC1(C)C(/C=C/C=C/C=C2/N(CCCCS(=O)(=O)O)c3ccccc3C2(C)C)=[N+](CCCCCC(=O)NCCCCCCCCN2CCC(OC(=O)Nc3ccc(F)cc3-c3ccc(F)c(Cl)c3)CC2)c2ccc(S(=O)(=O)[O-])cc21	0.3
CN(C)c1ccc2c(-c3ccc(-c4cn(CCCCCn5cc(CCCCCCN6CCC(COC(=O)Nc7ccc(F)cc7-c7ccc(F)c(Cl)c7)CC6)nn5)nn4)cc3C(=O)[O-])c3ccc(=[N+](C)C)cc-3oc2c1	0.13

====

Quick list: pKi per entry.
- experimental.system: Muscarinic acetylcholine receptor M3 (Homo sapiens, UniProt P20309)
- Sequence (P20309 whole entry): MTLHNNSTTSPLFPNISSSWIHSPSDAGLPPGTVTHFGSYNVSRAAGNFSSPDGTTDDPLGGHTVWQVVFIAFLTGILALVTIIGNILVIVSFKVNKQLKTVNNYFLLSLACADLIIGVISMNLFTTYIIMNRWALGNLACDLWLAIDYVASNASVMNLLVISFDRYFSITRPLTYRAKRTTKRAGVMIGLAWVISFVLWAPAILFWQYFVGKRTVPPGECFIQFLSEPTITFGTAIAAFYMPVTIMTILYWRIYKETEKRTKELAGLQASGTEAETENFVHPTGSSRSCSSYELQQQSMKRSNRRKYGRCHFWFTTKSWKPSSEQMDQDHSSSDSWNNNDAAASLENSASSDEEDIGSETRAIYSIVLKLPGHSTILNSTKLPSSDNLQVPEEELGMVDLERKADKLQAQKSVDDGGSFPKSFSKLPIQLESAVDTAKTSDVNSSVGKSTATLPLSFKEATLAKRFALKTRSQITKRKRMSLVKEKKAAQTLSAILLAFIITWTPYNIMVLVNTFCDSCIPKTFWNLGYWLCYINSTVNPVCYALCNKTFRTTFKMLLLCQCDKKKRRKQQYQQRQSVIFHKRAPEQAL
- measurement.description: Displacement of [3H]N-methylscopolamine from human muscarinic M3 receptor expressed in human HEK293T cell membranes by radioligand competition binding based analysis
- Design: species or system Cell membrane
pKi: −log10 of the molar value.
readout: pKi

test.smiles	experimental.system	measured.value
O=C(Nc1ccc(F)cc1-c1ccc(F)c(Cl)c1)OC1CCNCC1	Muscarinic acetylcholine receptor M3 (Homo sapiens, UniProt P20309)	8.37
CN(C)c1ccc2c(-c3ccc(-c4cn(CCCCCn5cc(CCCCCCN6CCC(OC(=O)Nc7ccc(F)cc7-c7ccc(F)c(Cl)c7)CC6)nn5)nn4)cc3C(=O)[O-])c3ccc(=[N+](C)C)cc-3oc2c1	Muscarinic acetylcholine receptor M3 (Homo sapiens, UniProt P20309)	7.92
CN(C)c1ccc2c(-c3ccc(-c4cn(CCCCCn5cc(CCCCCCN6CCC(COC(=O)Nc7ccc(F)cc7-c7ccc(F)c(Cl)c7)CC6)nn5)nn4)cc3C(=O)[O-])c3ccc(=[N+](C)C)cc-3oc2c1	Muscarinic acetylcholine receptor M3 (Homo sapiens, UniProt P20309)	8.92
NCCCCCCN1CCC(OC(=O)Nc2ccc(F)cc2-c2ccc(F)c(Cl)c2)CC1	Muscarinic acetylcholine receptor M3 (Homo sapiens, UniProt P20309)	8.59
NCCCCCCCCN1CCC(COC(=O)Nc2ccc(F)cc2-c2ccc(F)c(Cl)c2)CC1	Muscarinic acetylcholine receptor M3 (Homo sapiens, UniProt P20309)	9.82

====

# pIC50 annotations
- experimental.system: Muscarinic acetylcholine receptor M3 (Homo sapiens, UniProt P20309)
- measurement.description: Binding affinity to human muscarinic M3 receptor expressed in human HEK293T cells co-expressing beta-arrestin2 assessed as inhibition of carbachol-induced beta-arrestin recruitment preincubated for 30 mins followed by carbachol stimulation and measured after 90 mins by PathHunter assay
- Type: cell-based
pIC50: −log10 of the molar value.

test.smiles	pIC50
CC1(C)C(/C=C/C=C/C=C2/N(CCCCS(=O)(=O)O)c3ccccc3C2(C)C)=[N+](CCCCCC(=O)NCCCCCCCCN2CCC(OC(=O)Nc3ccc(F)cc3-c3ccc(F)c(Cl)c3)CC2)c2ccc(S(=O)(=O)[O-])cc21	6.35
CN(C)c1ccc2c(-c3ccc(-c4cn(CCCCCn5cc(CCCCCCN6CCC(COC(=O)Nc7ccc(F)cc7-c7ccc(F)c(Cl)c7)CC6)nn5)nn4)cc3C(=O)[O-])c3ccc(=[N+](C)C)cc-3oc2c1	6.37

====

- experimental.system: Muscarinic acetylcholine receptor M1 (Homo sapiens, UniProt P11229)
- Sequence (P11229 whole entry): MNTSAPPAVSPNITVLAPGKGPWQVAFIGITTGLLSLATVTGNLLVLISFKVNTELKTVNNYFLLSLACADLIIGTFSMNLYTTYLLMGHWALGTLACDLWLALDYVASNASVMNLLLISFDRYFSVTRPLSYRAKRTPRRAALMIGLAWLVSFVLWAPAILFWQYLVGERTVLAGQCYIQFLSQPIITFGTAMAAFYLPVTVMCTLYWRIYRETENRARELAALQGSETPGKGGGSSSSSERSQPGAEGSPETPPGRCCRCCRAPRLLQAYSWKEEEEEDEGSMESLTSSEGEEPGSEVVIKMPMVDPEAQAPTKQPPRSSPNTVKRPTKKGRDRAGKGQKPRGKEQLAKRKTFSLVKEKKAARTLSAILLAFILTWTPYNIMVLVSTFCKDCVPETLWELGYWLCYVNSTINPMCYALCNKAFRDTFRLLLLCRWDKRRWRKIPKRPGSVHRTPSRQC
pKi: −log10 of the molar value.

test.smiles	pKi
CN1/C(=C/C=C/C=C/C2=[N+](CCCCCC(=O)NCCCCCCN3CCC(COC(=O)Nc4ccc(F)cc4-c4ccc(F)c(Cl)c4)CC3)c3ccccc3C2(C)C)C(C)(C)c2ccccc21	8.64
CN(C)c1ccc2c(-c3ccc(-c4cn(CCCCCn5cc(CCCCCN6CCC(COC(=O)Nc7ccc(F)cc7-c7ccc(F)c(Cl)c7)CC6)nn5)nn4)cc3C(=O)[O-])c3ccc(=[N+](C)C)cc-3oc2c1	8.42
CN(C)c1ccc2c(-c3ccc(-c4cn(CCCCCn5cc(CCCCCCN6CCC(OC(=O)Nc7ccc(F)cc7-c7ccc(F)c(Cl)c7)CC6)nn5)nn4)cc3C(=O)[O-])c3ccc(=[N+](C)C)cc-3oc2c1	8.70
CN1/C(=C/C=C/C=C/C2=[N+](CCCCCC(=O)NCCCCCCCCN3CCC(OC(=O)Nc4ccc(F)cc4-c4ccc(F)c(Cl)c4)CC3)c3ccccc3C2(C)C)C(C)(C)c2ccccc21	9.00
C#CCCCCCCN1CCC(COC(=O)Nc2ccc(F)cc2-c2ccc(F)c(Cl)c2)CC1	9.19
CN1/C(=C/C=C/C=C/C2=[N+](CCCCCC(=O)NCCCNCCCCCCN3CCC(COC(=O)Nc4ccc(F)cc4-c4ccc(F)c(Cl)c4)CC3)c3ccccc3C2(C)C)C(C)(C)c2ccccc21	8.72

====

- experimental.system: Muscarinic acetylcholine receptor M3 (Homo sapiens)
- measurement.description: Displacement of [3H]N-methylscopolamine from human muscarinic M3 receptor expressed in human HEK293T cell membranes by radioligand competition binding based analysis
- Design: species or system Cell membrane
pKi: −log10 of the molar value.
Measured pKi by item

test.smiles	pKi
CN1/C(=C/C=C/C=C/C2=[N+](CCCCCC(=O)NCCCCCCCCN3CCC(COC(=O)Nc4ccc(F)cc4-c4ccc(F)c(Cl)c4)CC3)c3ccccc3C2(C)C)C(C)(C)c2ccccc21	8.49
C#CCCCCCCN1CCC(COC(=O)Nc2ccc(F)cc2-c2ccc(F)c(Cl)c2)CC1	9.49
CN1/C(=C/C=C/C=C/C2=[N+](CCCCCC(=O)NCCCCCCN3CCC(COC(=O)Nc4ccc(F)cc4-c4ccc(F)c(Cl)c4)CC3)c3ccccc3C2(C)C)C(C)(C)c2ccccc21	8.20
CN1/C(=C/C=C/C=C/C2=[N+](CCCCCC(=O)NCCCCCCN3CCC(OC(=O)Nc4ccc(F)cc4-c4ccc(F)c(Cl)c4)CC3)c3ccccc3C2(C)C)C(C)(C)c2ccccc21	8.57
CN(C)c1ccc2c(-c3ccc(-c4cn(CCCCCn5cc(CCCCCN6CCC(COC(=O)Nc7ccc(F)cc7-c7ccc(F)c(Cl)c7)CC6)nn5)nn4)cc3C(=O)[O-])c3ccc(=[N+](C)C)cc-3oc2c1	8.51
C#CCCCCCN1CCC(COC(=O)Nc2ccc(F)cc2-c2ccc(F)c(Cl)c2)CC1	9.11
C#CCCCCCN1CCC(OC(=O)Nc2ccc(F)cc2-c2ccc(F)c(Cl)c2)CC1	8.74

====

- experimental.system: Muscarinic acetylcholine receptor M3 (Homo sapiens)
- measurement.description: Binding affinity to saturated human muscarinic M3 expressed in CHO cells assessed as dissociation constant incubated for 2 hrs in presence of atropine by flow cytometry
- Type: cell-based
pKd: −log10 of the molar value.
readout: pKd

test.smiles	readout	measured.value
CC1(C)C(/C=C/C=C/C=C2/N(CCCCS(=O)(=O)O)c3ccccc3C2(C)C)=[N+](CCCCCC(=O)NCCCCCCCCN2CCC(OC(=O)Nc3ccc(F)cc3-c3ccc(F)c(Cl)c3)CC2)c2ccc(S(=O)(=O)[O-])cc21	pKd	7.30
CN(C)c1ccc2c(-c3ccc(-c4cn(CCCCCn5cc(CCCCCCN6CCC(COC(=O)Nc7ccc(F)cc7-c7ccc(F)c(Cl)c7)CC6)nn5)nn4)cc3C(=O)[O-])c3ccc(=[N+](C)C)cc-3oc2c1	pKd	7.62

====

Documented Ki across a set of compounds
- experimental.system: Muscarinic acetylcholine receptor M4 (Homo sapiens, UniProt P08173)
- Sequence (P08173 whole entry): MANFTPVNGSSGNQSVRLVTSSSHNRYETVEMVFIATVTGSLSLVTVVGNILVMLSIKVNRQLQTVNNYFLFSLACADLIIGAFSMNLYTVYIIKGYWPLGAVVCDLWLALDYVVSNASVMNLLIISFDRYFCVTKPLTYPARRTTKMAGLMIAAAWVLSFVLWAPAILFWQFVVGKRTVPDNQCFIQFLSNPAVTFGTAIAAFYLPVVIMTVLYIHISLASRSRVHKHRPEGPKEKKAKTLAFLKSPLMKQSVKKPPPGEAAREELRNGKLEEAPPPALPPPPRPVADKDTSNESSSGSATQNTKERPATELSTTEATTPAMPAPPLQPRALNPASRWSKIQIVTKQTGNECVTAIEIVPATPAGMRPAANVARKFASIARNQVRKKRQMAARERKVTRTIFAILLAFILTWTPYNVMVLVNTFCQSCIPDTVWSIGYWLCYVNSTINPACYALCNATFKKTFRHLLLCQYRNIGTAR
readout: Ki (nM)

test.smiles	readout	measured.value
CC1(C)C(/C=C/C=C/C=C2/N(CCCCS(=O)(=O)O)c3ccccc3C2(C)C)=[N+](CCCCCC(=O)NCCCCCCCCN2CCC(OC(=O)Nc3ccc(F)cc3-c3ccc(F)c(Cl)c3)CC2)c2ccc(S(=O)(=O)[O-])cc21	Ki	0.87
CN(C)c1ccc2c(-c3ccc(-c4cn(CCCCCn5cc(CCCCCCN6CCC(COC(=O)Nc7ccc(F)cc7-c7ccc(F)c(Cl)c7)CC6)nn5)nn4)cc3C(=O)[O-])c3ccc(=[N+](C)C)cc-3oc2c1	Ki	1.4
CN(C)c1ccc2c(-c3ccc(-c4cn(CCCCCn5cc(CCCCCN6CCC(COC(=O)Nc7ccc(F)cc7-c7ccc(F)c(Cl)c7)CC6)nn5)nn4)cc3C(=O)[O-])c3ccc(=[N+](C)C)cc-3oc2c1	Ki	2.6
CN1/C(=C/C=C/C=C/C2=[N+](CCCCCC(=O)NCCCCCCCCN3CCC(COC(=O)Nc4ccc(F)cc4-c4ccc(F)c(Cl)c4)CC3)c3ccccc3C2(C)C)C(C)(C)c2ccccc21	Ki	0.56
